# SUBJECT_OF_TEST: USP28 (USP28-5(1-1077)-TEV-6*His; LifeSensors) (Homo sapiens)
# Construct: construct USP28 (USP28-5(1-1077)-TEV-6*His; LifeSensors); TEV cleavage site (C); 6xHis (C); purchased LifeSensors
# PROTOCOL_TEXT: Ubiquitin-Rhodamine 110 Assay for USP28 Activity, Example A-1(b)
# Format: biochemical
# EXPERIMENTAL_CONTEXT: Ubiquitin-Rhodamine 110 assay, format Example A-1(b)
OUTCOME_MEASURE: USP28 A-1(b) IC50 range

>  <MOLECULE>
Cc1ccc2c(N)c(C(=O)N[C@@H]3COc4c(F)c(N5CC6CCC(C5)N6)cc(F)c4C3)sc2n1 (single isomer, unassigned) [Example 13-2]

>  <RESULT>
+ (>2 μM)

$$$$
>  <MOLECULE>
Cc1ccc2c(N)c(C(=O)N[C@H]3CCc4cc(N5CC6CCC(C5)N6)c(F)cc4C3)sc2n1 (single isomer, unassigned) [Example 21-4]

>  <RESULT>
++ (0.2-2 μM)

$$$$
>  <MOLECULE>
Cc1ccc2c(N)c(C(=O)N[C@H]3CCc4cc(N5CCNCC5)cnc4C3)sc2n1 (single isomer, unassigned) [Example 15-2]

>  <RESULT>
+ (>2 μM)

$$$$
>  <MOLECULE>
Cc1cnc2c(N)c(C(=O)N[C@@H]3CCc4cc(N5CC6CCC(C5)N6)c(C#N)cc4C3)sc2n1 (single isomer, unassigned) [Example 14-7]

>  <RESULT>
++ (0.2-2 μM)

$$$$

* * *

# SUBJECT_OF_TEST: USP28 (His-tagged USP28-FL-mammalian) (Homo sapiens, UniProt Q96RU2)
# Construct: Expression of USP28 (1-1077)-TEV-6*His (pTT5 vector); made in house; host or cells: Expi293f cells (pTT5 vector)
# Sequence (Q96RU2 1-1077): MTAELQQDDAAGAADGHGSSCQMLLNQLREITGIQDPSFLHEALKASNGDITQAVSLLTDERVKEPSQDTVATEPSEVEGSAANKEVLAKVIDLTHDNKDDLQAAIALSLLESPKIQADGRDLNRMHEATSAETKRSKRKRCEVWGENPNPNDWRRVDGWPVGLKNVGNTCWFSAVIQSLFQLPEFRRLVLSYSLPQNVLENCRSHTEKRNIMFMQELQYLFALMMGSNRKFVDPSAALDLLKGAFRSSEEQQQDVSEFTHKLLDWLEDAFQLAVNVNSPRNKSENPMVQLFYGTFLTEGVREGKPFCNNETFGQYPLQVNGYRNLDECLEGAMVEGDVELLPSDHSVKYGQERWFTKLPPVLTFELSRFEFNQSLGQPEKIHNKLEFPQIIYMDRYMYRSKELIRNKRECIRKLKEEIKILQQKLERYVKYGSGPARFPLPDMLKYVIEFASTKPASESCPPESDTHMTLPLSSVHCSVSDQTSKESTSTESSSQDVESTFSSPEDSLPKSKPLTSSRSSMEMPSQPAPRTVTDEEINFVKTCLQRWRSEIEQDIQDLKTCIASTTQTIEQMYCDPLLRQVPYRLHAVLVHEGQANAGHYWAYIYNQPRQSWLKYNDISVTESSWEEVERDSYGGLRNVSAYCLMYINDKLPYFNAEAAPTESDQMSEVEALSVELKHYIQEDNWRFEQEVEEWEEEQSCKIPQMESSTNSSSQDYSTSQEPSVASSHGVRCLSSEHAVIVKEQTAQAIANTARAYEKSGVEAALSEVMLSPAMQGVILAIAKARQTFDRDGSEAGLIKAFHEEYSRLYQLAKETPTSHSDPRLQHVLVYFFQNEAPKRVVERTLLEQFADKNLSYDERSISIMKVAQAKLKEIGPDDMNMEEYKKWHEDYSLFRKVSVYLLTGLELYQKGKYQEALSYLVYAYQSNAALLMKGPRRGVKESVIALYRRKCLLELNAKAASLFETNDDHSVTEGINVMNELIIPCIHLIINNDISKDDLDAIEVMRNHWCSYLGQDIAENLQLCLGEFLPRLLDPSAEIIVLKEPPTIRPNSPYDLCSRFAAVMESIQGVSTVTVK
# PROTOCOL_TEXT: Ubiquitin-Rhodamine 110 Assay for USP28 Activity, Example A-1(a)
# Format: biochemical
# EXPERIMENTAL_CONTEXT: Ubiquitin-Rhodamine 110 assay, Example A-1(a); read-out: USP28 A-1(a) IC50 range

>  <QUERY_SMILES>
Cc1ccc2c(N)c(C(=O)N[C@H]3COc4cc(N5C[C@@H]6NCCO[C@@H]6C5)ccc4C3)sc2n1

>  <IC50>
50 to 200 nM

$$$$
>  <QUERY_SMILES>
Cc1ccc2c(N)c(C(=O)N[C@H]3COc4cc([C@H]5CCNC[C@@H]5O)ccc4C3)sc2n1

>  <IC50>
1 to 50 nM

$$$$
>  <QUERY_SMILES>
Cc1ccc2c(N)c(C(=O)N[C@H]3COc4cc(C5(F)CCNCC5)ccc4C3)sc2n1

>  <IC50>
1 to 50 nM

$$$$
>  <QUERY_SMILES>
Cc1ccc2c(N)c(C(=O)N[C@H]3COc4cc(N5CC[C@H]6CNC[C@H]65)ccc4C3)sc2n1

>  <IC50>
1 to 50 nM

$$$$
>  <QUERY_SMILES>
CO[C@@H]1CN(c2ccc3c(c2)CC[C@H](NC(=O)c2sc4nc(C)ccc4c2N)C3)C[C@@H]1N

>  <IC50>
1 to 50 nM

$$$$
>  <QUERY_SMILES>
Cc1cc(C)c2c(N)c(C(=O)N[C@H]3COc4cc(N5CCNCC5)cc(F)c4C3)sc2n1

>  <IC50>
1 to 50 nM

$$$$
>  <QUERY_SMILES>
COC[C@@H]1CN(c2ccc3c(n2)CC[C@H](NC(=O)c2sc4nc(C)ccc4c2N)C3)C[C@H]1N

>  <IC50>
200 to 2000 nM

$$$$
>  <QUERY_SMILES>
CCOC[C@@H]1CN(c2ccc3c(c2)OC[C@H](NC(=O)c2sc4nc(C)ccc4c2N)C3)C[C@@H]1N

>  <IC50>
1 to 50 nM

$$$$
>  <QUERY_SMILES>
CCn1ccc2cc(C(=O)N[C@H]3COc4c(F)c([C@H]5CCNC[C@H]5O)cc(F)c4C3)nnc21

>  <IC50>
200 to 2000 nM

$$$$
>  <QUERY_SMILES>
Cc1ccc2c(N)c(C(=O)N[C@H]3COc4cc(N5CC6CCC(C5)N6)c(F)cc4C3)sc2n1

>  <IC50>
1 to 50 nM

$$$$
>  <QUERY_SMILES>
COC[C@H]1CN(c2ccc3c(n2)CC[C@H](NC(=O)c2sc4nc(C)cnc4c2N)C3)C[C@H]1N

>  <IC50>
50 to 200 nM

$$$$
>  <QUERY_SMILES>
Cc1ccc2c(N)c(C(=O)N[C@H]3COc4cc(N5CC6CNC[C@](C)(C5)O6)cc(F)c4C3)sc2n1

>  <IC50>
1 to 50 nM

$$$$
>  <QUERY_SMILES>
CCn1ccc2cc(C(=O)N[C@H]3CCc4cc(N5C[C@H](OC)[C@@H](N)C5)ccc4C3)cnc21

>  <IC50>
200 to 2000 nM

$$$$
>  <QUERY_SMILES>
CO[C@]1(C)CN(c2ccc3c(n2)OC[C@H](NC(=O)c2sc4nc(C)ccc4c2N)C3)C[C@H]1N

>  <IC50>
50 to 200 nM

$$$$
>  <QUERY_SMILES>
COC[C@H]1CN(c2ccc3c(n2)CC[C@H](NC(=O)c2sc4nc(C)ccc4c2N)C3)C[C@@H]1N

>  <IC50>
50 to 200 nM

$$$$

* * *

# SUBJECT_OF_TEST: USP25 (USP25-His6, Boston Biochem E-546) (Homo sapiens, UniProt Q9UHP3)
# Construct: His6; purchased Boston Biochem E-546
# Sequence (Q9UHP3 1-1055): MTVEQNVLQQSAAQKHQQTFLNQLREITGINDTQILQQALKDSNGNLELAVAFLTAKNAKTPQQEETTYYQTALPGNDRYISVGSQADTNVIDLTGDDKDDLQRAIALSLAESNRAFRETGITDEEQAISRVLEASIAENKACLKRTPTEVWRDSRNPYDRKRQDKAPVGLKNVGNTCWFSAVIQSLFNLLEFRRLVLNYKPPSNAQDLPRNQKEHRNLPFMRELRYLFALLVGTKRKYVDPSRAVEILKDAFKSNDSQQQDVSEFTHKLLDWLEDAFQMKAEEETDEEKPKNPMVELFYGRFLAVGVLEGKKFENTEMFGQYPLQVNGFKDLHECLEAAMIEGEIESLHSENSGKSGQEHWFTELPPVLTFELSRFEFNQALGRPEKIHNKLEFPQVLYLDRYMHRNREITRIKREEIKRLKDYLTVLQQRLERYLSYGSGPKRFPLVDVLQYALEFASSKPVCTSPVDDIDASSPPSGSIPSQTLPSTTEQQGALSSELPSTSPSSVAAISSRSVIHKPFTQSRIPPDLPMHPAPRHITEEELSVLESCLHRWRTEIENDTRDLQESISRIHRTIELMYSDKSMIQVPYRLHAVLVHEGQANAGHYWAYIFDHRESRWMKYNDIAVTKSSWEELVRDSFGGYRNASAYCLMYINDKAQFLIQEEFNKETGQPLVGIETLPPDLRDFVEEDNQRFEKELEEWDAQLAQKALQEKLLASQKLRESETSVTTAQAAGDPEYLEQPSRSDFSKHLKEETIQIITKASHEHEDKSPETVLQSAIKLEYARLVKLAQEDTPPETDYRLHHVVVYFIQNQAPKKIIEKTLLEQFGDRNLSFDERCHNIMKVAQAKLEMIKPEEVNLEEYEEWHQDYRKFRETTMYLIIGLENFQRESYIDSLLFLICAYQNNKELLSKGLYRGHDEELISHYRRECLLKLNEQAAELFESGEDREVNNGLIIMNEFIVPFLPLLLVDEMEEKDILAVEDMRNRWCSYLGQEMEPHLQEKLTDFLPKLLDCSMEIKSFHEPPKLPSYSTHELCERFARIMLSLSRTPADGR
# PROTOCOL_TEXT: Ubiquitin-Rhodamine 110 Assay for USP25 Activity, Example A-2
# Assay type: biochemical
# EXPERIMENTAL_CONTEXT: Ubiquitin-Rhodamine 110 assay, format Example A-2; read-out: USP25 A-2 IC50 range
pIC50: −log10 of the molar value.
OUTCOME_MEASURE: pIC50

>  <COMPOUND>
Cc1ccc2c(N)c(C(=O)N[C@H]3CCc4cc(N5CCNCC5)cnc4C3)sc2n1 (single isomer, unassigned) [Example 15-2]

>  <SUBJECT_OF_TEST>
USP25 (USP25-His6, Boston Biochem E-546) (Homo sapiens, UniProt Q9UHP3)

>  <RESULT>
< 5.70

$$$$
>  <COMPOUND>
Cc1ccc2c(N)c(C(=O)N[C@@H]3COc4c(F)c(N5CC6CCC(C5)N6)cc(F)c4C3)sc2n1 (single isomer, unassigned) [Example 13-2]

>  <SUBJECT_OF_TEST>
USP25 (USP25-His6, Boston Biochem E-546) (Homo sapiens, UniProt Q9UHP3)

>  <RESULT>
< 5.70

$$$$
>  <COMPOUND>
Cc1cnc2c(N)c(C(=O)N[C@@H]3CCc4c(ccc(N5CC6CCC(C5)N6)c4C#N)C3)sc2n1 (single isomer, unassigned) [Example 14-5]

>  <SUBJECT_OF_TEST>
USP25 (USP25-His6, Boston Biochem E-546) (Homo sapiens, UniProt Q9UHP3)

>  <RESULT>
6.70 to 7.30

$$$$
>  <COMPOUND>
Cc1nc2sc(C(=O)N[C@@H]3CCc4cc(N5CC6CCC(C5)N6)ccc4C3)c(N)c2s1 (single isomer, unassigned) [Example 12-2]

>  <SUBJECT_OF_TEST>
USP25 (USP25-His6, Boston Biochem E-546) (Homo sapiens, UniProt Q9UHP3)

>  <RESULT>
5.70 to 6.70

$$$$
>  <COMPOUND>
Cc1ccc2c(N)c(C(=O)N[C@H]3CCc4cc(N5CC6CCC(C5)N6)c(F)cc4C3)sc2n1 (single isomer, unassigned) [Example 21-4]

>  <SUBJECT_OF_TEST>
USP25 (USP25-His6, Boston Biochem E-546) (Homo sapiens, UniProt Q9UHP3)

>  <RESULT>
< 5.70

$$$$
>  <COMPOUND>
Cc1ccc2c(N)c(C(=O)N[C@@H]3CCc4c(F)c(N5CCNCC5)cc(F)c4C3)sc2n1 (single isomer, unassigned) [Example 22-2]

>  <SUBJECT_OF_TEST>
USP25 (USP25-His6, Boston Biochem E-546) (Homo sapiens, UniProt Q9UHP3)

>  <RESULT>
6.70 to 7.30

$$$$
